Some molecules, each annotated with its measured inhibition.
Assay: RAM pathway blockade in budding yeast – dse1pr::URA3 reporter, 5-FOA selection, pilot screen (AID 869);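 also: 0% = DMSO wells with no growth and 100% = 10 µM 1-NA-PP1 with full growth; RAM network block rescues cells from 5-FOA so hits raise OD615 growth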
Conditions: S. cerevisiae dse1pr::URA3 5-FOA growth, OD615, 2 d; at 10 µM; hits give high values; strain carries analog-sensitive mutant Cbk1 kinase
The source made the active and inactive calls.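 The calls were made as follows: active = inhibition over a set limit, the all-compound mean plus 3 SD, in both replicate runs; inconclusive = over that limit in just one replicate run; inactive = at or under that limit in both runs.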
MEASUREMENT_NAME: inhibition

1) O=C(CN1C(=O)c2ccccc2S1(=O)=O)NCc1ccccc1Cl = 0.125% (inactive)
2) CC(C)OCCCNC(=O)c1ccc2c(c1)ncn2C1CCCC1 = 1.38% (inactive)
3) Cn1c(=O)c2c(nc(SCCCC#N)n2Cc2c(F)cccc2Cl)n(C)c1=O = 3.15% (inactive)
